- Tested on: Candida albicans
- ASSAY REMARKS: Antiyeast activity against Candida albicans WD 18-4 assessed as total inhibition of fungal growth after 24 to 48 hrs by microdilution-colorimetric method
- Type: functional
TEST READOUT: MIC (µg/mL)
Enter your answer as a number in µg/mL; do not include the unit.

Challenge: Item: CC(C)(C)OC(=O)N[C@@H](CCC(=O)Nc1nc(=O)[nH]cc1F)C(=O)OCc1ccccc1 Test system: Candida albicans Read-out: MIC Value: ?
Response given: 2.5

Challenge: Notebook: pull reported MIC for Candida albicans, entry C[C@H](NC(=O)OC(C)(C)C)C(=O)NCC(=O)Nc1nc(=O)[nH]cc1F
Response given: 1.25

Challenge: Quick check: MIC on Candida albicans, item Nc1nc(=O)[nH]cc1F ?
Response given: 5

Challenge: Request body: readout MIC, system Candida albicans, query O=C(CCC(=O)Nc1nc(=O)[nH]cc1F)NCC(=O)NCC(=O)OCc1ccccc1 . Return the value.
Response given: 5

Challenge: Form field - read-out: MIC; system: Candida albicans; submitted item: CC(=O)Nc1nc(O)ncc1F
Response given: 5

Challenge: # query: MIC | item O=C(CNC(=O)OCc1ccccc1)Nc1nc(=O)[nH]cc1F | system: Candida albicans
Response given: 2.5

Challenge: Form field - read-out: MIC; system: Candida albicans; submitted item: CC(C)C[C@H](NC(=O)[C@H](CC(C)C)NC(=O)CCC(=O)Nc1nc(=O)[nH]cc1F)C(=O)O
Response given: 5

// provenance: ChEMBL document CHEMBL3244264
